assay method text: yeast display, Sf9 membrane polyspecificity reagent, FACS + sequencing; frameworks hold sequencing errors
experimental endpoint: polyreactivity (PSR sort gate)

sequence content	test result
QVQLVESGGGLVPAGGSLRLSCAASGSIFLAYAMGWYRQAPGKERELVAAITSIDGITSYADSVKGRFTISRDNAKNTVYLQMNSLTPEDTAVSYCAAPDGHWIRQWDTFEYWGQGTQVTVSS	low polyreactivity
QVQLVESGVGLVQAGGSLRLSCAASGRTFRSYTMGWYRQAPGKERELVAAINRGDRTYADSVKGRFTISRDNAKNTVYLQMNSLKPEDTAVYYCNARYYTHRYDYWGQGTQVTVSS	high polyreactivity
QVQLVESGGGLVQAGGSLRLSCAASGSIIGTYAMGWYRQAPGKERELVAAISSSSTRTYYADSVKGRFTISRDTAKNTVYLQMNSLKPEDTAVYYCAATFTAVRGKYGYWGQGTQVTVSS	high polyreactivity
QVQLVESGGGLVQAGGSLRLSCAASGSIFDFYAMGWYRQAPGKEREFVAAITQSGASTYADSVKGRFTISRDNAKNTVYLQMNSLKPEDTAVYYCNADSGGRGAPTSTYDYWGQGSQVTVSS	low polyreactivity
QVQLEESGGGLVQAGGSLRLSCAASGRIFWANAMGWSRQAPGKERELVAAINRRTGITYYADSVKGRFTISRDNAKNTVYLQMNSLKPEDTAVYYCNAGSSPIRQYYGQVWKKGGYWGQGTQVTVSS	high polyreactivity
